experimental_protocol: Measurement of pKa value of monomer having hydrophilic functional group Y by NaOH titration
Format: physicochemical
cond: water/acetone solution, titration in water/acetone with NaOH, corrected by blank, read-out: pKa
Method: The method of measuring and calculating a pKa value is mentioned below using 1,1-bistrifluoromethyl-3-buten-1-ol: In a water/acetone solution of 10/15 ml was poured 0.7865 g of CH2═CHCH2C(CF3)2OH, followed by stirring at room temperature. After it was confirmed that the solution was homogeneous, titration was carried out with 0.2 mole/L NaOH solution. […] An equivalence point was determined by an inflection point (maximum differential value of titration curve=dpH/dml) of the titration curve. […]
readout: pKa

compound | readout | val
O=C(O)C1(F)CC2C=CC1C2 (centres unmarked) | pKa | 3.8
C=C(F)C(=O)O [CH2═CF—COOH, α-fluoroacrylic acid] | pKa | 3.4
